// pIC50 lookup, one value per entry
target: central benzodiazepine receptors
assayProtocol: inhibition of the binding of tritiated flumazenil to the specific benzodiazepine receptors in the cortex of rats
conditionNotes: read-out: Affinity to benzodiazepine receptors IC50
pIC50: −log10 of the molar value.
measuredParameter: pIC50

• CCCN(CCC)Cc1cnc(-c2ncn3c2CN(C)C(=O)c2c-3ccc(F)c2Cl)o1 = 8.15
• CCCN(CCC)Cc1csc(-c2ncn3c2[C@@H]2CCN2C(=O)c2c(Cl)cccc2-3)n1 = 7.96
• CCCN(CCC)Cc1coc(-c2ncn3c2CN(C)C(=O)c2c(Cl)cccc2-3)n1 = 7.82
• CCCN(CCC)Cc1cnc(-c2ncn3c2CN(C)C(=O)c2sccc2-3)o1 = 7.77
• CCCN(CCC)Cc1cnc(-c2ncn3c2[C@@H]2CCN2C(=O)c2sccc2-3)o1 = 8.15

---

assayProtocol: rotating rod test (sedative/muscle relaxant properties)
Assay type: in vivo, mice
conditionNotes: Mus musculus, iv, 1 h; i.v., 60 min after administration; read-out: Rotating rod test, ED550
# maps each entry to its ED50
measuredParameter: ED50

* CCCN(CCC)Cc1cnc(-c2ncn3c2CN(C)C(=O)c2c-3ccc(F)c2Cl)o1 | ≥ 10 mg/kg
* CCCN(CCC)Cc1cnc(-c2ncn3c2[C@@H]2CCN2C(=O)c2c(Cl)cccc2-3)o1 | > 10 mg/kg
* CCCN(CCC)Cc1cnc(-c2ncn3c2CN(C)C(=O)c2sccc2-3)o1 | > 10 mg/kg
* CCCN(CCC)Cc1coc(-c2ncn3c2CN(C)C(=O)c2c(Cl)cccc2-3)n1 | > 10 mg/kg
* CCCCN(CCCC)Cc1cnc(-c2ncn3c2CN(C)C(=O)c2cc(F)ccc2-3)o1 | > 10 mg/kg

---

Each entry below carries its reported pIC50.
target: central benzodiazepine receptors
assayProtocol: inhibition of the binding of tritiated flumazenil to the specific benzodiazepine receptors in the cortex of rats
conditionNotes: read-out: Affinity to benzodiazepine receptors IC50
Protocol: The affinity of compounds of general formula I to the central benzodiazepine receptors has been established in vitro according to the methods described in Nature 294, 763-765 (1981) and J. Neurochemistry 37, 714-722 (1981). According to these methods, the inhibition of the binding of tritiated flumazenil to the specific benzodiazepine receptors in the cortex of rats by the respective test substances is determined. […]
pIC50: −log10 of the molar value.
measuredParameter: pIC50

- CCCCN(CCCC)Cc1cnc(-c2ncn3c2CN(C)C(=O)c2cc(F)ccc2-3)o1: 7.46
- CCCN(CCC)Cc1csc(-c2ncn3c2CN(C)C(=O)c2c-3ccc(F)c2Cl)n1: 7.80
- CCCN(CCC)Cc1csc(-c2ncn3c2[C@@H]2CCCN2C(=O)c2c(Cl)cccc2-3)n1: 7.82

---

target: central benzodiazepine receptors
assayProtocol: inhibition of the binding of tritiated flumazenil to the specific benzodiazepine receptors in the cortex of rats
conditionNotes: read-out: Affinity to benzodiazepine receptors IC50
pIC50: −log10 of the molar value.
Listed here: items and their measured pIC50.
measuredParameter: pIC50

- CCCN(CCC)Cc1csc(-c2ncn3c2CN(C)C(=O)c2c(Cl)cccc2-3)n1 [J]: 8.28
- CCCN(CCC)Cc1cnc(-c2ncn3c2[C@@H]2CCN2C(=O)c2c(Cl)cccc2-3)o1 [A]: 7.49
- CCCN(CCC)Cc1cnc(-c2ncn3c2CN(C)C(=O)c2c(Cl)cccc2-3)o1 [G]: 8.40
- CCCN(CCC)Cc1cnc(-c2ncn3c2CN(C)C(=O)c2cc(F)ccc2-3)o1 [B]: 7.23
- CCCN(CCC)Cc1cnc(-c2ncn3c2CN(C)C(=O)c2ccccc2-3)o1 [F]: 7.18
